Data provenance is patent US20230100838A1.

# target: K-Ras G12S (Homo sapiens, UniProt P01116, G12S)
# Sequence (P01116 whole entry G12S): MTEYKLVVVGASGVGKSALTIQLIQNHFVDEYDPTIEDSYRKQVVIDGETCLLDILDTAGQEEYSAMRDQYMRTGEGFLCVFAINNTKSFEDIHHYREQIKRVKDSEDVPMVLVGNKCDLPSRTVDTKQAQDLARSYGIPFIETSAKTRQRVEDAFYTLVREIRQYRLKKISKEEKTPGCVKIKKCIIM
# assay: K-Ras G12S cross-linking assay (comparable procedure, conjugate formation, TOF mass spectrometry)
# Assay type: binding
# study conditions: Table 4, percent covalently modified K-Ras by MS

| molecule | G12S x-linking (%) |
| --- | --- |
| Cc1cccc2cccc(N3CCc4c(nc(OC[C@@H]5CCCN5C)nc4NCCNC4=NCCO4)C3)c12 | + (0 < x ≤ 10) |
| Cc1cccc2cccc(N3CCc4c(nc(OC[C@@H]5CCCN5C)nc4N(C)CCN=C=NCc4ccc(Cl)cc4)C3)c12 | ++ (10 < x ≤ 100) |
| Fc1ccccc1-c1c(Cl)cc2c(N3CCC(NC4=NCCO4)CC3)ncnc2c1F | + (0 < x ≤ 10) |
| CN(CCN=C=NCc1ccccc1)c1ncnc2c(F)c(-c3ccccc3F)c(Cl)cc12 | + (0 < x ≤ 10) |
| Cc1cccc2cccc(N3CCc4c(nc(OC[C@@H]5CCCN5C)nc4N4CCC(N(C)C(=O)C5CN5S(C)(=O)=O)CC4)C3)c12 (stereo partly drawn) | + (0 < x ≤ 10) |
| Cc1cccc2cccc(N3CCc4c(nc(OC[C@@H]5CCCN5C)nc4N4CCN(C(=O)NCCCl)[C@@H](CC#N)C4)C3)c12 | + (0 < x ≤ 10) |
| CC(=O)N1CC1C(=O)N1CCN(c2ncnc3c(F)c(-c4ccccc4F)c(Cl)cc23)CC1 (stereo not drawn) | + (0 < x ≤ 10) |
| Cc1cccc2cccc(N3CCc4c(nc(OC[C@@H]5CCCN5C)nc4N4CCC(N(C)C(=O)C5CN5)CC4)C3)c12 (stereo partly drawn) | + (0 < x ≤ 10) |
| Fc1ccccc1-c1c(Cl)cc2c(N3CCC(N=C=Nc4ccc(Cl)cc4)CC3)ncnc2c1F | 0 |
| Cc1cccc2cccc(N3CCc4c(nc(OC[C@@H]5CCCN5C)nc4N4CCC(N=C=NCc5ccc(Cl)cc5)CC4)C3)c12 | + (0 < x ≤ 10) |
| O=C(NCCCl)NCCNc1ncnc2c(F)c(-c3ccccc3F)c(Cl)cc12 | 0 |
| CCCN=C=NCCN(C)c1nc(OC[C@@H]2CCCN2C)nc2c1CCN(c1cccc3cccc(C)c13)C2 | ++ (10 < x ≤ 100) |
| COc1ccc(CN=C=NC2CCN(c3nc(OC[C@@H]4CCCN4C)nc4c3CCN(c3cccc5cccc(C)c35)C4)CC2)cc1 | + (0 < x ≤ 10) |
| Cc1cccc2cccc(N3CCc4c(nc(OC[C@@H]5CCCN5C)nc4N4CCC(N=C=Nc5ccccc5)CC4)C3)c12 | + (0 < x ≤ 10) |
| Cc1cccc2cccc(N3CCc4c(nc(OC[C@@H]5CCCN5C)nc4N4CCC(N=C=NC(C)C)CC4)C3)c12 | ++ (10 < x ≤ 100) |
